assay type: in vivo, mice; conditions: male, mouse, plasma, po, Tmax, Chronic Synbiotic
I'd be grateful if you could share measured log10 of Tmax for these entries.
A value of 2 here means Tmax of 100 in min, since values are log10.

**Query** // lookup log10 of Tmax for O=C(O)Cc1ccccc1 [PA, Phenylacetic acid]
**Result** 2.38

**Query** Request the reported log10 of Tmax associated with O=C(O)Cc1ccc(O)cc1 [4-HPAA, 4-Hydroxyphenylacetic acid]
**Result** 1.26

**Query** Item under review: O=C(O)CNC(=O)c1ccccc1 [HA, Hippuric acid] . Reported log10 of Tmax?
**Result** 2.38

**Query** Consider the compound COc1cc(O)c2c(=O)c(O)c(-c3ccc(O)c(O)c3)oc2c1 [7′-MeQUER, Rhamnetin] and give its measured log10 of Tmax.
**Result** 1.48

**Query** Fill in the blank: the reported log10 of Tmax of O=C(O)/C=C/c1ccc(O)c(O)c1 [CA, Caffeic acid] is ____.
**Result** 1.26

**Query** # get_value(readout='log10 of Tmax', item= O=c1c(O)c(-c2cc(O)c(O)c(O)c2)oc2cc(O)cc(O)c12 [MYR, Myricetin] )
**Result** 1.26

**Query** I'd like to know its log10 of Tmax. The compound in question is O=C(O)CCc1cccc(O)c1 [3-HPPA, 3-(3-Hydroxyphenyl)propionic acid]
**Result** 2.08

**Query** # query: log10 of Tmax of entry O=C(O)C=Cc1ccc(O)cc1 [4-HCA, 4-Hydroxycinnamic acid]
**Result** 1.26

**Query** Sample Oc1ccc(CCc2cc(O)cc(O)c2)cc1 [DHRSV, Dihydroresveratrol] — what was its log10 of Tmax?
**Result** 2.68

====

format: in vivo, mice; settings: Plasma; Chronic BDPP; over 24 h
Would you mind telling me the reported AUC of each entry?
Please give a number only; it is taken to be in ng·h/mL.

**Query** What does the data say about its AUC? Entry: "COc1cc(CCC(=O)O)ccc1O"
**Result** 30.7

**Query** Quick one: AUC of "Oc1cc(O)c2c(c1)O[C@H](c1ccc(O)c(O)c1)[C@H](O)[C@H]2c1c(O)cc(O)c2c1O[C@H](c1ccc(O)c(O)c1)[C@H](O)C2" ?
**Result** 1.5

====

assay type: in vivo, mice; settings: male, mouse, brain, po, Cmax, Chronic BDPP, n = 6 +/- SEM
Classification field: enter y for Cmax values not below 20 ng/mL, n for values below it.

**Query** API: above_or_equal(metric=Cmax, cutoff=20 ng/mL) for item COc1c(O)cc(C(=O)O)cc1O [4-MeGA, 4-O-Methylgallic acid]
**Result** n

**Query** Could you verify whether the entry O=c1c(O)c(-c2ccc(O)c(O)c2)oc2cc(O)cc(O)c12 [QUER, Quercetin] shows Cmax of no less than 20 ng/mL?
**Result** y

**Query** Given O=C(O)CNC(=O)c1ccccc1 [HA, Hippuric acid] , state whether its Cmax is at least 20 ng/mL.
**Result** y

**Query** Identify whether the reported Cmax of the following molecule is 20 ng/mL or greater: COc1cc(C(=O)O)ccc1O [VA, Vanillic acid]
**Result** n

**Query** Would you say O=C(O)Cc1ccc(O)c(O)c1 [3,4-diHPAA, 3,4-Dihydroxyphenylacetic acid] shows Cmax at minimum 20 ng/mL?
**Result** y

**Query** Tell me whether Cmax is at least 20 ng/mL here: COc1cc(-c2oc3cc(O)cc(O)c3c(=O)c2O)ccc1O [3′-MeQUER, Isorhamnetin]
**Result** n

**Query** Assess whether reported Cmax for O=C(O)c1cccc(O)c1 [3-HBA, 3-Hydroxybenzoic acid] sits at 20 ng/mL or higher.
**Result** n

**Query** Cmax >= 20 ng/mL for O=C(O)Cc1ccc(O)cc1 [4-HPAA, 4-Hydroxyphenylacetic acid] ?
**Result** y

**Query** Can O=C(O)c1ccc(O)cc1 [4-HBA, 4-Hydroxybenzoic acid] be said to have Cmax at or above 20 ng/mL?
**Result** y

**Query** Cmax >= 20 ng/mL for O=C(O)Cc1ccccc1 [PA, Phenylacetic acid] ?
**Result** y

**Query** Hello, I need to know if COc1cc(CC(=O)O)ccc1O [HVA, Homovanillic acid] has measured Cmax not below 20 ng/mL. Thanks!
**Result** y

**Query** Is it the case that O=c1c(O)c(-c2ccc(O)cc2)oc2cc(O)cc(O)c12 [KAMF, Kaempferol] has Cmax reaching or exceeding 20 ng/mL?
**Result** y

**Query** API: above_or_equal(metric=Cmax, cutoff=20 ng/mL) for item O=C(O)c1cc(O)c(O)c(O)c1 [GA, Gallic acid]
**Result** y

**Query** Say whether O=C(O)Cc1cccc(O)c1 [3-HPAA, 3-Hydroxyphenylacetic acid] shows Cmax of 20 ng/mL or more.
**Result** n

**Query** Evaluate O=c1c(O)c(-c2cc(O)c(O)c(O)c2)oc2cc(O)cc(O)c12 [MYR, Myricetin] : Cmax at minimum 20 ng/mL?
**Result** y

**Query** Dear colleague, could you confirm whether O=C(O)c1ccc(O)c(O)c1 [3,4-diHBA, 3,4-Dihydroxybenzoic acid] has Cmax at or above 20 ng/mL?
**Result** n

====

assay type: in vivo, mice; details: male, mouse, plasma, po, AUC, Chronic BDPP, over 24 h
endpoint: AUC (µg·h/mL)
Quick note: give the figure in µg·h/mL, leave out the unit.

**Query** # AUC lookup, item "O=C(O)CNC(=O)c1ccccc1"
**Result** 0.889

**Query** Data request, read-out AUC, for "O=c1c(O)c(-c2cc(O)c(O)c(O)c2)oc2cc(O)cc(O)c12"
**Result** 0.0853

**Query** Return reported AUC; argument: O=C(O)c1cccc(O)c1 [3-HBA, 3-Hydroxybenzoic acid]
**Result** 0.366

**Query** Suppose we examine the compound Oc1cc(O)c2c(c1)O[C@H](c1ccc(O)c(O)c1)[C@H](O)C2 [EC, Epicatechin] ; what AUC value has been reported?
**Result** 0.189

**Query** Bench note: what AUC did "COc1cc(C(=O)O)ccc1O" show?
**Result** 0.299

**Query** Sample "O=C(O)Cc1ccccc1" — what was its AUC?
**Result** 8630

**Query** Any idea what AUC was measured for O=C(O)CCc1cccc(O)c1 [3-HPPA, 3-(3-Hydroxyphenyl)propionic acid] ?
**Result** 0.0047

**Query** Endpoint output: AUC of "COc1cc(-c2oc3cc(O)cc(O)c3c(=O)c2O)ccc1O" . Value?
**Result** 0.0156

**Query** GET /values?readout=AUC&item= "COc1cc(CC(=O)O)ccc1O"
**Result** 0.205

====

assay type: in vivo, mice; conditions: male, mouse, plasma, po, AUC, Chronic Synbiotic, over 24 h
# label = MET if AUC >= 400 ng·h/mL else NOT MET

**Query** Exam item: decide whether the reported AUC for O=C(O)c1cccc(O)c1 [3-HBA, 3-Hydroxybenzoic acid] is at least 400 ng·h/mL.
**Result** NOT MET

**Query** Identify whether the reported AUC of the following molecule is 400 ng·h/mL or greater: Oc1cc(O)c2c(c1)O[C@H](c1ccc(O)c(O)c1)[C@H](O)C2 [EC, Epicatechin]
**Result** MET

**Query** Please tell me: is the molecule Oc1ccc(CCc2cc(O)cc(O)c2)cc1 [DHRSV, Dihydroresveratrol] at or over 400 ng·h/mL in terms of AUC?
**Result** MET

**Query** Check this molecule for AUC at or above 400 ng·h/mL: O=c1c(O)c(-c2cc(O)c(O)c(O)c2)oc2cc(O)cc(O)c12 [MYR, Myricetin]
**Result** NOT MET

**Query** // inclusive: AUC at least 400 ng·h/mL? input: O=c1c(O)c(-c2ccc(O)cc2)oc2cc(O)cc(O)c12 [KAMF, Kaempferol]
**Result** NOT MET

**Query** Determine whether this molecule has AUC no lower than 400 ng·h/mL: COc1cc(O)c2c(=O)c(O)c(-c3ccc(O)c(O)c3)oc2c1 [7′-MeQUER, Rhamnetin]
**Result** NOT MET

**Query** Check if AUC >= 400 ng·h/mL (inclusive). Item: O=C(O)c1ccc(O)c(O)c1 [3,4-diHBA, 3,4-Dihydroxybenzoic acid]
**Result** NOT MET

**Query** Given the entry O=C1CCC(Cc2ccc(O)c(O)c2)O1 (stereo not drawn) [DHVL] , answer whether its AUC meets or surpasses 400 ng·h/mL.
**Result** NOT MET

**Query** Quick check, AUC >= 400 ng·h/mL? COc1cc(CC(=O)O)ccc1O [HVA, Homovanillic acid]
**Result** MET
